- protocol summary: Quantitative highthroughput screen to assess conditional lethalithy of P12 Ichikawa cells grown in RPMI1640 with untreated serum (RPMI+s) (AID 1963881); further: nearly all actives have a fitted effect of over 35% in size
- condition set: ATP luminescence, 48 h; viability; series mostly up to 45.8 µM
Inconclusive results are not listed. Calls of active or inactive are those of the source. The call rests on the fitted dose curve; in most records, active means well fitted cell-killing curve with a large enough effect; inconclusive means small, poorly fitted or top-dose-only effect; inactive means flat fitted curve, though single readings scatter.
Respond only with the outcome that fits, drawn from active, inactive

Fill in: this test's call for Nc1ccn(C[C@@H](CO)OCP(=O)(O)O)c(=O)n1 is ___
inactive

Now give it for CN(C)c1ccc(C(=C2C=CC(=[N+](C)C)C=C2)c2ccc(N(C)C)cc2)cc1 too.
active

Same again, this time with Cc1cc(-c2ccc(CC(=O)Nc3ccc(-c4cccnc4)cc3)cc2)ccn1
active

Also CNS(=O)(=O)Cc1ccc2[nH]cc(CCN(C)C)c2c1 , if possible.
inactive

Now consider C[C@H](NC(=O)C(C#N)=Cc1cccc(Br)n1)c1ccccc1 .
active

Next record, please: O=C(C1CC1)N1CC[C@@H](Cc2n[nH]c(=O)n2-c2ccc(-c3ccc4occc4c3)cc2)C1
inactive

Further, for Cc1ccc(C(=O)c2cc(O)c(O)c([N+](=O)[O-])c2)cc1 ?
inactive

Next up: CCCCOc1c(C(=O)c2c(F)cc(C)cc2F)cnc2n[nH]cc12
inactive

Quick one: COc1cc(C(C)C)c2c(c1)S(=O)(=O)N(COc1cc(=O)n3cccc(OCCN4CCCCC4)c3n1)C2=O
inactive

What about O=C1CCc2cc(OCCCCc3nnnn3C3CCCCC3)ccc2N1 ?
inactive
